Taken from ChEMBL document CHEMBL5104093.

Test system: SCC-25
Test: Cytotoxicity against human SCC-25 cells assessed as reduction in cell viability incubated for 72 hrs by alamar blue assay
Type: functional, cell-based
Details: SCC-25, 72 h
Measure Name: IC50 (nM)
A number alone suffices; assume nM.

Using the record for CC1(C)OC2=C(CC1I)C(=O)C(=O)c1ccccc12 (stereo unspecified) , report its IC50. 20
